Consider the following molecules; for each one, report its pIC50.
System: MCF7 (NET 0)
experiment.summary: in vitro
Format: cell-based, human
settings: 48 hr assay (24 h exposure + 24 h recovery), Table 3; read-out: Cytotoxicity IC50
Note: pIC50 values are expressed as the negative base-10 logarithm of concentration in M.

pIC50 for N=C(N)NCc1ccc(CCl)c(I)c1 ?
4.84

Okay, and N=C(N)NCc1cccc(I)c1 ?
3.86

Okay, and CCSSCc1ccc(CNC(=N)N)cc1I ?
4.62

* * *

Tested on: MCF7 (NET 0)
experiment.summary: in vitro
Type: cell-based, human
recorded.metric: IC50

IC50 for N=C(N)NCc1ccc(CSC[C@H](NC(=O)CC[C@H](N)C(=O)O)C(=O)NCC(=O)O)c(I)c1 ?
> 1 mM

Data origin, for the record: patent US20100104628A1
